Target: PU.1 (IVT) (UniProt P17947 1-270)
Test: protein-binding microarray (PBM); 20 mM HEPES pH 7.9, 100 mM NaCl, 1 mM DTT, 0.2 mg/mL BSA, 0.02% Triton X-100, 2% milk, 0.4 mg/mL salmon testes DNA; 1 h; temperature not stated; high values mean tight binding
Details: dsDNA, one strand shown
The full ranking holds about 3,700 sequences; the median of “z-score” is about 4, and the highest 2% start at about 8.4. This is one part of a sample in which the highest values are shown more often than they occur.

Sequence Content: GCCTAGCACACCAGGAGGAAGTGGTTGCAGTGCTAGGTCTTGATTCGCTTGACGCTGCTG
Measurement Units: z-score
binding signal: 4.06

Sequence Content: GCCTAGCACAGAAAGAGGAAGAGCCTCAGGTGCTAGGTCTTGATTCGCTTGACGCTGCTG
Measurement Units: z-score
binding signal: 5.13

Sequence Content: GCCTAGCACAGAAAGAGGAAGAGAAACTTGTGCTAGGTCTTGATTCGCTTGACGCTGCTG
Measurement Units: z-score
binding signal: 4.63

Sequence Content: GCCTAGCACAGAAAGAGGAAATGACCTATGTGCTAGGTCTTGATTCGCTTGACGCTGCTG
Measurement Units: z-score
binding signal: 5.8

Sequence Content: GCCTAGCACGTCAAAAAAAGGAAAAAGCCGTGCTAGGTCTTGATTCGCTTGACGCTGCTG
Measurement Units: z-score
binding signal: 0.885

----------
Target: PU.1 (IVT) (UniProt P17947 1-270)
Assay: protein-binding microarray (PBM); 20 mM HEPES pH 7.9, 100 mM NaCl, 1 mM DTT, 0.2 mg/mL BSA, 0.02% Triton X-100, 2% milk, 0.4 mg/mL salmon testes DNA; 1 h; temperature not stated; high values mean tight binding
Conditions: dsDNA, one strand shown
The full ranking holds about 3,700 sequences; the median of “z-score” is about 4, and the highest 2% start at about 8.4. The entries come from a sample that favours the highest values as a whole.
I would appreciate it if you labelled entries t when binding signal is 6 z-score or higher, otherwise f.

Sequence Content: GCCTAGCACAAAAAGAGGAAGTCATTCTTGTGCTAGGTCTTGATTCGCTTGACGCTGCTG
Label Class: t

Sequence Content: GCCTAGCACACAAAGAGGAAGTCCCATTTGTGCTAGGTCTTGATTCGCTTGACGCTGCTG
Label Class: t

Sequence Content: GCCTAGCACAAAAAGAGGAAGTCCTATTTGTGCTAGGTCTTGATTCGCTTGACGCTGCTG
Label Class: t

Sequence Content: GCCTAGCACAAAAAAAGGAAAGGAAAGTAGTGCTAGGTCTTGATTCGCTTGACGCTGCTG
Label Class: f

----------
Target: PU.1 (IVT) (UniProt P17947 1-270)
Test: protein-binding microarray (PBM); 20 mM HEPES pH 7.9, 100 mM NaCl, 1 mM DTT, 0.2 mg/mL BSA, 0.02% Triton X-100, 2% milk, 0.4 mg/mL salmon testes DNA; 1 h; temperature not stated; high values mean tight binding
Details: dsDNA, one strand shown
The full ranking holds about 3,700 sequences; the median of “z-score” is about 4, and the highest 2% start at about 8.4. What follows is part of a selection rich in the highest values, with near analogues and random picks from the rest.

Sequence Content: GCCTAGCACAAAAAGAGGAAGTCAGTTTGGTGCTAGGTCTTGATTCGCTTGACGCTGCTG
binding signal: 8.4 z-score

Sequence Content: GCCTAGCACTAAAGGAGGAATTGAAACCAGTGCTAGGTCTTGATTCGCTTGACGCTGCTG
binding signal: 1.22 z-score

Sequence Content: GCCTAGCACGAAAAGAGGAAGTGTGAGACGTGCTAGGTCTTGATTCGCTTGACGCTGCTG
binding signal: 7.97 z-score

Sequence Content: GCCTAGCACAAAGAGAGGAAGTACAGTTTGTGCTAGGTCTTGATTCGCTTGACGCTGCTG
binding signal: 5.35 z-score

Sequence Content: GCCTAGCACAAGAAGAGGAAGTGAGTGCTGTGCTAGGTCTTGATTCGCTTGACGCTGCTG
binding signal: 7.09 z-score
